Origin of values: the supplement of paper PMC10567573

B1: MCOLN1 (parent)
chain: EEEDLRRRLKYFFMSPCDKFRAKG

# Variants of: B1
# protocol-details: protein stability index of a GFP-peptide fusion (GPS, HEK-293T) (PSI 1-6); higher = more stable;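 further: lentivirally expressed fusions sorted by FACS into six bins by GFP to DsRed ratio, PSI derived from sequencing read proportions per bin multiplied by bin number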
# assay-conditions: c terminus: a fixed tail appended
readout-label: protein stability index
No unit in the answer, only the number.

These recorded examples may help you get a feel for the data.
{"sequence-record": "EEEDLCRRLKYFFMSPCDKFRAKG [R6C]", "protein stability index": 2.85}
{"sequence-record": "EEEDLRRRLKYFFMSPCDCFRAKG [K19C]", "protein stability index": 2.33}
{"sequence-record": "EEEDLRRRLKYFFWSPCDKFRAKG [M14W]", "protein stability index": 3.05}
{"sequence-record": "EEKDLRRRLKYFFMSPCDKFRAKG [E3K]", "protein stability index": 1.87}
{"sequence-record": "EEEDDRRRLKYFFMSPCDKFRAKG [L5D]", "protein stability index": 3.43}

Ask: Data request, read-out protein stability index, for EEEDLRRQLKYFFMSPCDKFRAKG [R8Q]
Result: 3

Ask: Data request, read-out protein stability index, for EEEDLRRRLKYFFMSPPDKFRAKG [C17P]
Result: 2.9

Ask: Data request, read-out protein stability index, for EEESLRRRLKYFFMSPCDKFRAKG [D4S]
Result: 1.42

Ask: Data request, read-out protein stability index, for EEEDLRRRLKYFFMHPCDKFRAKG [S15H]
Result: 2.79
